- assay remarks: plasmodial surface anion channel blockers, osmotic lysis – cell-based, P. falciparum Indochina, OD700, 18 h, primary screen (AID 1157)
- experimental context: P. falciparum Indochina infected erythrocytes, osmotic lysis OD700, 18 h; higher = more signal, called active from +8 up or from −8 down
Rule: z-score of 0.3 or more gives Fulfilled; anything lower gives Not fulfilled.

Given the entry C=CCC(OC(C)=O)[C@@H]1[C@@H](N(Cc2cc3ccccc3o2)C(=O)c2cccc3ccccc23)c2cc(OCCCO)ccc2N1C(=O)Cc1ccc2ccccc2c1 (some centres undefined) , answer whether its z-score meets or surpasses 0.3.
Fulfilled

Check the entry CCCCCCC#C[Si](O[C@H](c1ccccc1)c1cn([C@H](C)c2ccccc2)nn1)(C(C)C)C(C)C : does z-score equal or exceed 0.3?
Not fulfilled

For this compound, is measured z-score 0.3 or higher? O=C(NCc1ccccc1)[C@@H]1c2ccccc2C(=O)N(Cc2cc(F)cc(C(F)(F)F)c2)[C@H]1c1ccc(CO)cc1
Not fulfilled

Determine whether measured z-score meets or exceeds 0.3 for CC(C)NC(=O)[C@@]1(c2ccc([N+](=O)[O-])cc2)CC(=O)N(C(C)C)[C@@H]1c1ccc(CO)cc1
Not fulfilled

Dear colleague, could you confirm whether C=C(CCCC)/C(=C/C[C@@H](OC(=O)c1ccncc1)c1ccc(CO)o1)c1cc(C(=O)OC)ccc1OC has z-score at or above 0.3?
Fulfilled

Item O=C1OCC=C[C@H]2OC34C=CCN(c5ccc(Cl)cc5)C(=O)[C@H]3N(CCCO)C(=O)[C@@H]4[C@@H]12 (some centres undefined) with z-score of 0.3 or above?
Not fulfilled

# bool: z-score of COc1ccc(C#Cc2ccc3c(c2)[C@]2(C(=O)N3)[C@H](C(=O)N3CCc4cc(OC)c(OC)cc4C3)[C@H]3C(=O)O[C@H](c4ccccc4)[C@H](c4ccccc4)N3[C@@H]2c2ccc(OCCO)cc2)cc1 >= 0.3
Fulfilled

Hi team, for Cc1ccc(S[C@]2(C(=O)NCC(F)(F)F)CC(=O)N(C3Cc4ccccc4C3)[C@@H]2c2ccc(CO)cc2I)cc1 , is the recorded z-score at or above 0.3?
Fulfilled

Decide: is the reported value of z-score for O=c1cccc(-c2cccc3ccccc23)o1 equal to or greater than 0.3?
Fulfilled

Reported z-score reaches at least 0.3 for CCCNC(=O)[C@@]1(c2ccc([N+](=O)[O-])cc2)CC(=O)N(CC23CC4CC(CC(C4)C2)C3)[C@@H]1c1ccc(CO)cc1I ?
Fulfilled

Could you please find out whether COCCOC(=O)N1C(=O)[C@@]2(c3cc(C#CCC(C(=O)OC)C(=O)OC)ccc31)[C@H](c1ccc(OCCO)cc1)N1[C@H](c3ccccc3)[C@H](c3ccccc3)OC(=O)[C@H]1[C@@H]2C(=O)NC[C@H](O)c1ccccc1 has z-score that meets 0.3 or exceeds it?
Fulfilled

Record Cc1ccccc1/C=C/C=O ; criterion: z-score no lower than 0.3. Met?
Not fulfilled

Has [N-]=[N+]=Nc1ccccc1[C@@H]1OC(c2ccc(OCCCO)cc2)=N[C@]1(CCS(=O)(=O)c1ccccc1)C(=O)N1CCCCC1 a recorded z-score greater than or equal to 0.3?
Fulfilled

Is z-score for COC(=O)[C@@]1(Cc2ccc(OC)cc2)[C@H]2c3cc(C(=O)N4CCCC4)n(CCc4ccccn4)c3C[C@H]2CN1C(=O)c1ccccc1 at or above 0.3?
Fulfilled

API: above_or_equal(metric=z-score, cutoff=0.3) for item CCOC(=O)C=Cc1cccc(OC)c1O
Not fulfilled

Check the entry Cc1ccc(S[C@]2(C(=O)NCC(C)C)CC(=O)N(Cc3ccccc3)[C@@H]2c2ccc(CO)cc2)cc1 : does z-score equal or exceed 0.3?
Fulfilled

Check this compound for z-score at or above 0.3: O=C1O[C@@H](c2ccccc2)[C@@H](c2ccccc2)N2[C@@H](c3ccc(O)cc3)[C@]3(C(=O)Nc4ccc(C#CCCO)cc43)[C@@H](C(=O)O)[C@H]12
Fulfilled

Identify whether the reported z-score of the following compound is 0.3 or greater: CN(C)CCCCNC(=O)[C@@H]1C[C@@H]2C(=O)N[C@@H](CCCCN)C(=O)N2[C@@H]1c1cccc(OCCO)c1
Not fulfilled

Textbook exercise: given the entry COc1cc(NN2C(C(O)c3ccccc3)C=CC3C(=O)N(c4ccccc4)C(=O)C32)cc(OC)c1OC (centres undefined) , state whether its z-score is greater than or equal to 0.3.
Not fulfilled

Quick check: does O=C(NCC(O)CO)[C@@]1(Cc2ccccc2)COC(c2ccc(OCCCO)cc2)=N1 (some centres undefined) have z-score greater than or equal to 0.3?
Fulfilled

Is z-score for [N-]=[N+]=NCc1ccccc1C[C@]1(C(N)=O)N=C(c2ccc(OCCCO)cc2)O[C@H]1c1ccccc1N=[N+]=[N-] at or above 0.3?
Fulfilled

Does z-score meet or surpass 0.3 for COCCOC(=O)N1C(=O)[C@@]2(c3cc(C#CC4=CCCCC4)ccc31)[C@H](C(=O)N1CCN(c3ncccn3)CC1)[C@H]1C(=O)O[C@H](c3ccccc3)[C@H](c3ccccc3)N1[C@@H]2c1ccc(OCCO)cc1 ?
Fulfilled

hey, is z-score for this one >= 0.3? COc1ccc([Si](C)(C)[C@H]2[C@H](CCO)O[C@@]3(C(=O)N(Cc4cccc(N5C(=O)c6cccc7cccc5c67)c4)c4ccccc43)[C@@H]2C)cc1
Fulfilled
